Test system: 186277-243-T-J2-PDC complex spheroid growth, % test/control
Assay: Anticancer human tumor 186277-243-T-J2-PDC patient-derived colon adenocarcinoma cell line growth inhibition [Asc]
Conditions: second compound 0.3 µM; first compound 0.0316 µM; stronger effect = lower value
readout.type: viability, T/C

The examples below pair each entry with its known result.
# compound, viability, T/C
data = [
    ("NC1CCC(NC2CC2c2ccccc2)CC1 (stereo unspecified) + CCN1C(C(=O)NC23CCC(C(=O)O)(CC2)CC3)C(c2cccc(Cl)c2F)C2(C(=O)Nc3cc(Cl)ccc32)C12CCCCC2", "92.9%"),
    ("C#Cc1c(F)ccc2cc(O)cc(-c3ncc4c(N5CC6CCC(C5)N6)nc(OCC56CCCN5CC(F)C6)nc4c3F)c12 (stereo unspecified) + CCN1C(C(=O)NC23CCC(C(=O)O)(CC2)CC3)C(c2cccc(Cl)c2F)C2(C(=O)Nc3cc(Cl)ccc32)C12CCCCC2", "27.4%"),
    ("C=C(F)C(=O)N1CCN(c2nc(OCC3CCCN3C)nc3c2CCN(c2cccc4cccc(Cl)c24)C3)CC1CC#N (stereo unspecified) + CCN1C(C(=O)NC23CCC(C(=O)O)(CC2)CC3)C(c2cccc(Cl)c2F)C2(C(=O)Nc3cc(Cl)ccc32)C12CCCCC2", "76.3%"),
    ("O=C(c1ccc(F)c(F)c1Nc1ccc(I)cc1F)N1CC(O)([C@@H]2CCCCN2)C1 + CCN1C(C(=O)NC23CCC(C(=O)O)(CC2)CC3)C(c2cccc(Cl)c2F)C2(C(=O)Nc3cc(Cl)ccc32)C12CCCCC2", "22.6%"),
    ("Cn1ncnc1[C@H]1c2n[nH]c(=O)c3cc(F)cc(c23)N[C@@H]1c1ccc(F)cc1 + CCN1C(C(=O)NC23CCC(C(=O)O)(CC2)CC3)C(c2cccc(Cl)c2F)C2(C(=O)Nc3cc(Cl)ccc32)C12CCCCC2", "63.1%"),
]

// below: viability, T/C requested for another compound
viability, T/C in this record for O=C(c1cc(Cc2n[nH]c(=O)c3ccccc23)ccc1F)N1CCN(C(=O)C2CC2)CC1 + CCN1C(C(=O)NC23CCC(C(=O)O)(CC2)CC3)C(c2cccc(Cl)c2F)C2(C(=O)Nc3cc(Cl)ccc32)C12CCCCC2 : 77.8%

###

System: 186277-243-T-J2-PDC complex spheroid growth, % test/control
Assay: Anticancer human tumor 186277-243-T-J2-PDC cell line growth inhibition [Asc]; active = viability on the fitted dose curve at most 10% of control; inactive = the rest;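 also: spheroids exposed to agents for 7 days; 100% = DMSO vehicle control wells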
Details: second compound 0.316 µM; first compound 3 µM
Source text: Multicellular complex tumor spheroid response to apoptosis pathway targeting inhibitors Alrizomadlin, Pelcitoclax, and Dasminapant in combination with a variety of drugs and investigational agents in selected tumor cell lines […] Compounds. […] If the clinical Cmax for an agent had not been determined, the highest concentration tested was 10 microM. […]
Form entry, call: pick from active, inactive

# compound, discrete.label
records = [
    ("Cc1nc(N2CCC3(CC2)COC(C)C3N)c(CO)nc1Sc1ccnc(N)c1Cl (centres undefined) + Cc1c(S(C)(=O)=O)c(-c2cc(F)cc(N3CCN(c4ccc(NS(=O)(=O)c5ccc(NC(CCN6CCC(C(=O)OCCCP(=O)(O)O)CC6)CSc6ccccc6)c(S(=O)(=O)C(F)(F)F)c5)cc4)CC3)c2)c(-c2ccc(Cl)cc2)n1C(C)C", "inactive"),
]

*Q* Test call, this compound: CCN1C(C(=O)NC23CCC(C(=O)O)(CC2)CC3)C(c2cccc(Cl)c2F)C2(C(=O)Nc3cc(Cl)ccc32)C12CCCCC2 (centres undefined) + CNC(C)C(=O)NC1CN(S(=O)(=O)c2cccc(S(=O)(=O)N3CCC4CCC(C(=O)NC(c5ccccc5)c5ccccc5)N4C(=O)C(NC(=O)C(C)NC)C3)c2)CCC2CCC(C(=O)NC(c3ccccc3)c3ccccc3)N2C1=O
*A* inactive

*Q* What is the recorded call for this compound in the test? Cc1nc(N2CCC3(CC2)COC(C)C3N)c(CO)nc1Sc1ccnc(N)c1Cl (centres undefined) + CNC(C)C(=O)NC1CN(S(=O)(=O)c2cccc(S(=O)(=O)N3CCC4CCC(C(=O)NC(c5ccccc5)c5ccccc5)N4C(=O)C(NC(=O)C(C)NC)C3)c2)CCC2CCC(C(=O)NC(c3ccccc3)c3ccccc3)N2C1=O
*A* inactive

*Q* Lab log entry: CCN1C(C(=O)NC23CCC(C(=O)O)(CC2)CC3)C(c2cccc(Cl)c2F)C2(C(=O)Nc3cc(Cl)ccc32)C12CCCCC2 (centres undefined) + Cc1c(S(C)(=O)=O)c(-c2cc(F)cc(N3CCN(c4ccc(NS(=O)(=O)c5ccc(NC(CCN6CCC(C(=O)OCCCP(=O)(O)O)CC6)CSc6ccccc6)c(S(=O)(=O)C(F)(F)F)c5)cc4)CC3)c2)c(-c2ccc(Cl)cc2)n1C(C)C — outcome as called in the assay?
*A* active
